Assay: in vitro
Settings: African green monkey
In this section we review reported CC50 values for a set of compounds.

Recorded CC50, per entry:
item_smiles=C[C@@H]1COCCN1c1cc(N2CCCC[C@@H]2C(F)(F)F)[nH]c(=O)c1 data_value="> 30 µM"
item_smiles=C[C@@H]1COCCN1c1cc(N2CCC[C@@H]2C(F)(F)F)[nH]c(=O)c1 data_value="> 30 µM"
item_smiles=C[C@@H]1COCCN1c1cc(N2CCOCC23CCC3)[nH]c(=O)c1 data_value="> 10 µM"
item_smiles=C[C@@H]1COCCN1c1cc(N2CCCC[C@@H]2c2ccccc2)[nH]c(=O)c1 data_value="> 30 µM"

With those in mind, consider the next compound.
Challenge: Which measured CC50 value corresponds to C[C@@H]1COCCN1c1cc(N2CCOC[C@H]2C(F)(F)F)[nH]c(=O)c1 ?
Response given: > 30 µM

###

Test system: SARS CoV-1
Assay: organism not typed
Type: cell-based, Toronto 2 SARS CoV-1
Details: Vero C1008, 72 h, read-out: IC50 for inhibition of SARS CoV-1 mediated cell killing
ASSAY_METRIC: IC50 (nM)
Lab book: enter the figure in nM, no units written.

Challenge: Which measured IC50 value corresponds to C[C@@H]1COCCN1c1cc(N2CCCC[C@@H]2C(F)(F)F)[nH]c(=O)c1 ?
Response given: 650

Values compiled from patent US12414955B2.
